Target: recombinant human MGAT2 (Homo sapiens (Human))
Test: Measurement of human MGAT2 inhibitory activity
Type: biochemical
Settings: read-out: IC50 (concentration exhibiting 50% enzyme inhibition), Table 52
// reported IC50 per item
value_type: IC50

> print(dat)
                                given.smiles                           subject.of.test     result
 1  O=C(Nc1c2c(nn1CCC1CC1)C[C@]1(CCc3cc(OCC(F)(F)F)ccc31)NC2=O)c1cocn1  recombinant human MGAT2 (Homo sapiens (Human))  0.0475 µM
 2  CS(=O)(=O)CC(=O)Nc1c2c(nn1Cc1nc(C(F)(F)F)cs1)C[C@]1(CCc3cc(OCCCC(F)(F)F)ccc31)NC2=O  recombinant human MGAT2 (Homo sapiens (Human))  0.0032 µM
 3  CS(=O)(=O)CC(=O)Nc1c2c(nn1-c1ccccn1)C[C@]1(CCc3cc(OCC(F)(F)F)ccc31)NC2=O  recombinant human MGAT2 (Homo sapiens (Human))   0.017 µM
 4  O=C1N[C@@]2(CCc3cc(OCC(F)(F)F)ccc32)Cc2nn(CCC3CC3)c(C(=O)Nc3ccccc3)c21  recombinant human MGAT2 (Homo sapiens (Human))       1 µM
 5  CNS(=O)(=O)CC(=O)Nc1c2c(nn1CCC1CC1)C[C@]1(CCc3cc(OCCCC(F)(F)F)ccc31)NC2=O  recombinant human MGAT2 (Homo sapiens (Human))  0.0032 µM
 6  CS(=O)(=O)CC(=O)Nc1c2c(nn1-c1ccc(F)cn1)C[C@]1(CCc3cc(OCC(F)(F)F)ccc31)NC2=O  recombinant human MGAT2 (Homo sapiens (Human))  0.0026 µM
 7  O=C(Nc1c2c(nn1CCC1CC1)C[C@]1(CCc3cc(OCCCC(F)(F)F)ccc31)NC2=O)c1ccno1  recombinant human MGAT2 (Homo sapiens (Human))  0.0091 µM
 8  CS(=O)(=O)CC(=O)Nc1c2c(nn1-c1ccc(C#N)cn1)C[C@@]1(CCc3cc(OCC(F)(F)F)cc(F)c31)NC2=O  recombinant human MGAT2 (Homo sapiens (Human))  0.0017 µM
 9  CS(=O)(=O)CC(=O)Nc1nn(Cc2nc(C(F)(F)F)cs2)c2c1C(=O)N[C@@]1(CCc3cc(OCCCC(F)(F)F)ccc31)C2  recombinant human MGAT2 (Homo sapiens (Human))    0.55 µM
10  CS(=O)(=O)CC(=O)Nc1c2c(nn1CCCC(F)(F)F)C[C@@]1(CCc3cc(OCC(F)(F)F)cc(F)c31)NC2=O  recombinant human MGAT2 (Homo sapiens (Human))  0.0041 µM
11  CS(=O)(=O)NC(=O)c1c2c(nn1CCC1CC1)C[C@]1(CCc3cc(OCC(F)(F)F)ccc31)NC2=O  recombinant human MGAT2 (Homo sapiens (Human))  0.0505 µM
12  CS(=O)(=O)CC(=O)Nc1c2c(nn1CCC1CC1)C[C@]1(CCc3cc(OCC(F)F)ccc31)NC2=O  recombinant human MGAT2 (Homo sapiens (Human))   0.015 µM
13  O=C1N[C@@]2(CCc3cc(OCC(F)(F)F)ccc32)Cc2nn(CCC3CC3)c(CNC(=O)C3(C(F)(F)F)CC3)c21  recombinant human MGAT2 (Homo sapiens (Human))   0.038 µM

---

Molecular target: recombinant human MGAT2 (Homo sapiens (Human), UniProt Q3SYC2)
Sequence (Q3SYC2 whole entry): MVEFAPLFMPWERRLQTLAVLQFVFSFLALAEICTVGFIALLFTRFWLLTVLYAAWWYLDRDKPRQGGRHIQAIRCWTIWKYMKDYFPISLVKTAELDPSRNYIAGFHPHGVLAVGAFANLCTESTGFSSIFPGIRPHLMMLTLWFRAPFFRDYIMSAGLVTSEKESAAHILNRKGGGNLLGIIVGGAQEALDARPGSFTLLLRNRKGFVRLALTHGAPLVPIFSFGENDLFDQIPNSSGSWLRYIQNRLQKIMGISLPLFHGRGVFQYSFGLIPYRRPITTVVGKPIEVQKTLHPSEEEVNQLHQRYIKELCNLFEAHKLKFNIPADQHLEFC
Assay: Measurement of human MGAT2 inhibitory activity
Type: biochemical
Details: read-out: IC50 (concentration exhibiting 50% enzyme inhibition), Table 53
value_type: IC50

> print(dat)
                               given.smiles  value.type   result
1  CS(=O)(=O)CC(=O)Nc1c2c(nn1CCC1CC1)C[C@@]1(NC2=O)c2ccc(OCC(F)(F)F)cc2CC1(F)F        IC50  44.3 nM
2  N#Cc1ccc(-n2nc3c(c2C(=O)NC2CS(=O)(=O)C2)C(=O)N[C@@]2(CCc4cc(OCC(F)(F)F)ccc42)C3)nc1        IC50  3.06 nM
3  CS(=O)(=O)CC(=O)Nc1c2c(nn1-c1ccon1)C[C@]1(CCc3cc(OCC(F)(F)F)ccc31)NC2=O        IC50  40.7 nM
4  Cc1ccc(-n2nc3c(c2C(=O)NCCS(N)(=O)=O)C(=O)N[C@@]2(CCOc4cc(OCC(F)(F)F)ccc42)C3)nc1        IC50  22.3 nM

---

Target: recombinant human MGAT2 (Homo sapiens (Human), UniProt Q3SYC2)
Assay: Measurement of human MGAT2 inhibitory activity
Assay type: biochemical
Conditions: read-out: IC50 (concentration exhibiting 50% enzyme inhibition), Table 52
pIC50: −log10 of the molar value.
value_type: pIC50

> print(dat)
                                    compound                           subject.of.test  value.type  result
 1  O=C(Nc1nn(CCC2CC2)c2c1C(=O)N[C@@]1(CCc3cc(OCCCC(F)(F)F)ccc31)C2)c1ccno1  recombinant human MGAT2 (Homo sapiens (Human), UniProt Q3SYC2)       pIC50    6.27
 2  CCS(=O)(=O)NC(=O)c1c2c(nn1CCC1CC1)C[C@]1(CCc3cc(OCC(F)(F)F)ccc31)NC2=O  recombinant human MGAT2 (Homo sapiens (Human), UniProt Q3SYC2)       pIC50    7.34
 3  CS(=O)(=O)CC(=O)Nc1c2c(nn1CC1CCCO1)C[C@]1(CCc3cc(OCC(F)(F)F)ccc31)NC2=O (stereo partly drawn)  recombinant human MGAT2 (Homo sapiens (Human), UniProt Q3SYC2)       pIC50    7.10
 4  CS(=O)(=O)CC(=O)Nc1c2c(nn1-c1ccncn1)C[C@]1(CCc3cc(OCC(F)(F)F)ccc31)NC2=O  recombinant human MGAT2 (Homo sapiens (Human), UniProt Q3SYC2)       pIC50    7.28
 5  CS(=O)(=O)CC(=O)NCc1c2c(nn1CCC1CC1)C[C@]1(CCc3cc(OCC(F)(F)F)ccc31)NC2=O  recombinant human MGAT2 (Homo sapiens (Human), UniProt Q3SYC2)       pIC50    7.37
 6  COc1ccc(-n2nc3c(c2NC(=O)CS(C)(=O)=O)C(=O)N[C@@]2(CCc4cc(OCC(F)(F)F)ccc42)C3)nc1  recombinant human MGAT2 (Homo sapiens (Human), UniProt Q3SYC2)       pIC50    7.47
 7  COc1cccc(-n2nc3c(c2NC(=O)CS(C)(=O)=O)C(=O)N[C@@]2(CCc4cc(OCC(F)(F)F)ccc42)C3)c1  recombinant human MGAT2 (Homo sapiens (Human), UniProt Q3SYC2)       pIC50    6.96
 8  CS(=O)(=O)CC(=O)Nc1c2c(nn1-c1ccc(C(F)(F)F)cn1)C[C@]1(CCc3cc(F)cc(F)c31)NC2=O  recombinant human MGAT2 (Homo sapiens (Human), UniProt Q3SYC2)       pIC50    8.46
 9  O=C(NCc1c2c(nn1CCC1CC1)C[C@]1(CCc3cc(OCC(F)(F)F)ccc31)NC2=O)c1cccc(O)c1  recombinant human MGAT2 (Homo sapiens (Human), UniProt Q3SYC2)       pIC50    6.16
10  CS(=O)(=O)CC(=O)Nc1c2c(nn1CCC1CC1)C[C@@]1(CCc3cc(OCC(F)(F)F)cc(F)c31)NC2=O  recombinant human MGAT2 (Homo sapiens (Human), UniProt Q3SYC2)       pIC50    8.46
11  CS(=O)(=O)CC(=O)Nc1nn(CCC2CCCCC2)c2c1C(=O)N[C@@]1(CCc3cc(OCCCC(F)(F)F)ccc31)C2  recombinant human MGAT2 (Homo sapiens (Human), UniProt Q3SYC2)       pIC50    6.18
12  Cc1nnsc1C(=O)Nc1c2c(nn1CCC1CC1)C[C@]1(CCc3cc(OCC(F)(F)F)ccc31)NC2=O  recombinant human MGAT2 (Homo sapiens (Human), UniProt Q3SYC2)       pIC50    7.22
13  CS(=O)(=O)CC(=O)Nc1c2c(nn1CCCC#N)C[C@]1(CCc3cc(OCCCC(F)(F)F)ccc31)NC2=O  recombinant human MGAT2 (Homo sapiens (Human), UniProt Q3SYC2)       pIC50    7.76
14  Cc1ncc(C(=O)Nc2c3c(nn2CCC2CC2)C[C@]2(CCc4cc(OCC(F)(F)F)ccc42)NC3=O)s1  recombinant human MGAT2 (Homo sapiens (Human), UniProt Q3SYC2)       pIC50    6.68
15  Cc1ccccc1C(=O)NCc1c2c(nn1CCC1CC1)C[C@]1(CCc3cc(OCC(F)(F)F)ccc31)NC2=O  recombinant human MGAT2 (Homo sapiens (Human), UniProt Q3SYC2)       pIC50    6.38
16  CS(=O)(=O)CC(=O)Nc1c2c(nn1-c1cccc(C#N)c1)C[C@]1(CCc3cc(OCC(F)(F)F)ccc31)NC2=O  recombinant human MGAT2 (Homo sapiens (Human), UniProt Q3SYC2)       pIC50    6.28
17  CS(=O)(=O)Nc1c2c(nn1CCC1CC1)C[C@]1(CCc3cc(OCCCC(F)(F)F)ccc31)NC2=O  recombinant human MGAT2 (Homo sapiens (Human), UniProt Q3SYC2)       pIC50    6.20
18  Cc1ccccc1Cn1nc(NC(=O)CS(C)(=O)=O)c2c1C[C@]1(CCc3cc(OCCCC(F)(F)F)ccc31)NC2=O  recombinant human MGAT2 (Homo sapiens (Human), UniProt Q3SYC2)       pIC50    6.24
19  CS(=O)(=O)CC(=O)Nc1c2c(nn1CCC1CC1)C[C@]1(CCc3cc(N4CC(F)(F)C4)ccc31)NC2=O  recombinant human MGAT2 (Homo sapiens (Human), UniProt Q3SYC2)       pIC50    7.95
20  CS(=O)(=O)CC(=O)Nc1c2c(nn1-c1ccc(C#N)cn1)C[C@]1(CCOc3cc(OCC(F)(F)F)ccc31)NC2=O  recombinant human MGAT2 (Homo sapiens (Human), UniProt Q3SYC2)       pIC50    8.46
21  O=C(COC(F)(F)F)Nc1c2c(nn1CCC1CC1)C[C@]1(CCc3cc(OCCCC(F)(F)F)ccc31)NC2=O  recombinant human MGAT2 (Homo sapiens (Human), UniProt Q3SYC2)       pIC50    7.77
22  Cc1ccc(-n2nc3c(c2NC(=O)CS(C)(=O)=O)C(=O)N[C@@]2(CCc4cc(OCC(F)(F)F)ccc42)C3)nn1  recombinant human MGAT2 (Homo sapiens (Human), UniProt Q3SYC2)       pIC50    8.33
23  Cc1ccc(-n2nc(NC(=O)CS(C)(=O)=O)c3c2C[C@]2(CCc4cc(OCCCC(F)(F)F)ccc42)NC3=O)cc1  recombinant human MGAT2 (Homo sapiens (Human), UniProt Q3SYC2)       pIC50    6.71
24  CS(=O)(=O)CC(=O)Nc1c2c(nn1-c1ccc(OC(F)(F)F)cc1)C[C@]1(CCc3cc(OCCCC(F)(F)F)ccc31)NC2=O  recombinant human MGAT2 (Homo sapiens (Human), UniProt Q3SYC2)       pIC50    7.83
25  Cc1cc(C(=O)Nc2c3c(nn2CCC2CC2)C[C@]2(CCc4cc(OCC(F)(F)F)ccc42)NC3=O)ns1  recombinant human MGAT2 (Homo sapiens (Human), UniProt Q3SYC2)       pIC50    6.43
26  COc1ccc(C(=O)Nc2c3c(nn2CCC2CC2)C[C@]2(CCc4cc(OCCCC(F)(F)F)ccc42)NC3=O)cc1  recombinant human MGAT2 (Homo sapiens (Human), UniProt Q3SYC2)       pIC50    7.20
27  CC(C)S(=O)(=O)NCc1c2c(nn1CCC1CC1)C[C@]1(CCc3cc(OCC(F)(F)F)ccc31)NC2=O  recombinant human MGAT2 (Homo sapiens (Human), UniProt Q3SYC2)       pIC50    6.37
